Entries and their kinase still bound, per cent of control
- test-system: UniProt:O00238
- Sequence (O00238 whole entry, looked up): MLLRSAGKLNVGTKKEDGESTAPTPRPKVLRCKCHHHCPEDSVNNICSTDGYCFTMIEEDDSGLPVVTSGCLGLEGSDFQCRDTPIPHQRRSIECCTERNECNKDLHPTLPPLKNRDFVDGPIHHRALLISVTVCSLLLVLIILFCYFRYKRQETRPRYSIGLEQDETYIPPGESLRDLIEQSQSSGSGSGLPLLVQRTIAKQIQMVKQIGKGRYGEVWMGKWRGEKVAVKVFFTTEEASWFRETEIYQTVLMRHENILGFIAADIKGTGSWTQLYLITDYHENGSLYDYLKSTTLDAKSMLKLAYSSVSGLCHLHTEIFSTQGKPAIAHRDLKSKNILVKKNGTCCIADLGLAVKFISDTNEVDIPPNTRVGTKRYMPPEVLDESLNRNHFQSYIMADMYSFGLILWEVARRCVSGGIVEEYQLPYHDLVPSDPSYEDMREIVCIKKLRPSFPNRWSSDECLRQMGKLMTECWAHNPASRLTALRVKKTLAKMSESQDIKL
- assay-summary: KINOMEscan competition binding
- condition-summary: compound 10.0 µM

| smiles-string | test-system | result-unit | kinase still bound, per cent of control |
| --- | --- | --- | --- |
| N#C/C(=C1/Nc2ccccc2S1)c1ccnc(NCCc2cccnc2)n1 | UniProt:O00238 | % | 18 |
| COc1cc(N2CCC(C(N)=O)CC2)ccc1Nc1nc(N)c(Cl)c(Nc2ccccc2S(=O)(=O)C(C)C)n1 | UniProt:O00238 | % | 100 |
| CCOc1cc(N2CCC(O)CC2)ccc1Nc1ncc2c(n1)N(C)c1ccccc1C(=O)N2C | UniProt:O00238 | % | 100 |
| N#Cc1cc(-c2ccnc(Nc3ccc(-n4cnc(-c5cccnc5)n4)cc3)n2)cc(N2CCOCC2)c1 | UniProt:O00238 | % | 28 |

----------
Catalogue of kinase still bound, per cent of control readings, one per entry.
- test-system: LRRK2 (human)
- assay-summary: KINOMEscan competition binding
- condition-summary: compound 10.0 µM

| compound | kinase still bound, per cent of control [%] |
| --- | --- |
| CCN1CCN(Cc2ccc(NC(=O)c3ccc(C)c(/C=C/c4cnc5[nH]ccc5c4OC)c3)cc2C(F)(F)F)CC1 | 12 |
| CNC(=O)Nc1ccc(-c2nc(N3CC4CCC(C3)O4)c3cnn(C4CCC5(CC4)OCCO5)c3n2)cc1 | 82 |
| CC(=O)c1c(C)c2cnc(Nc3ccc(N4CCNCC4)cn3)nc2n(C2CCCC2)c1=O | 50 |
| CC1=C(C(=O)Nc2cc3cn[nH]c3cc2F)C(c2ccc(C(F)(F)F)cc2)CC(=O)N1 (stereo unspecified) | 100 |
| COc1cc2c(Nc3ccc(NC(=O)c4ccccc4)cc3)ncnc2cc1OCCCN1CCOCC1 | 73 |
| N#Cc1cc(-c2ccnc(Nc3ccc(-n4cnc(-c5cccnc5)n4)cc3)n2)cc(N2CCOCC2)c1 | 94 |

----------
Below: a set of entries, each annotated with reported kinase still bound, per cent of control.
- test-system: UniProt:Q92772
- Sequence (Q92772 whole entry, looked up): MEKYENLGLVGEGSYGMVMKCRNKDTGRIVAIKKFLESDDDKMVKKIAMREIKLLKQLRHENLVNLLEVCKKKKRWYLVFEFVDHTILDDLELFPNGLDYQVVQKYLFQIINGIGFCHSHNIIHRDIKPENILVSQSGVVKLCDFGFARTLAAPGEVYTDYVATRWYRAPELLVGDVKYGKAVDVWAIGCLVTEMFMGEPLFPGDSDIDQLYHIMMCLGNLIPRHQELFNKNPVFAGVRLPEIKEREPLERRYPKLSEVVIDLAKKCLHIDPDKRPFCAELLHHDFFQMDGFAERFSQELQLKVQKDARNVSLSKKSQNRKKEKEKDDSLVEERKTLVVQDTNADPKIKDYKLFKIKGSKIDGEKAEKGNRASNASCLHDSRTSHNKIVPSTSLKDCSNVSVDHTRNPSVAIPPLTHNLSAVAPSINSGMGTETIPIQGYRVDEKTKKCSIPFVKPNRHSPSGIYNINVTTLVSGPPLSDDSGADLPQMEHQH
- assay-summary: KINOMEscan competition binding
- condition-summary: compound 10.0 µM

| compound | kinase still bound, per cent of control |
| --- | --- |
| CCCS(=O)(=O)Nc1ccc(F)c(C(=O)c2c[nH]c3ncc(Cl)cc23)c1F | 49% |
| CCOc1cc(N2CCC(O)CC2)ccc1Nc1ncc2c(n1)N(C)c1ccccc1C(=O)N2C | 100% |
| CNC(=O)Nc1ccc(-c2nc(N3CC4CCC(C3)O4)c3cnn(C4CCC5(CC4)OCCO5)c3n2)cc1 | 100% |
| COc1cc2c(Nc3ccc(NC(=O)c4ccccc4)cc3)ncnc2cc1OCCCN1CCOCC1 | 12% |
| N#Cc1cc(-c2ccnc(Nc3ccc(-n4cnc(-c5cccnc5)n4)cc3)n2)cc(N2CCOCC2)c1 | 2% |
| N#C/C(=C1/Nc2ccccc2S1)c1ccnc(NCCc2cccnc2)n1 | 98% |
| C=CC(=O)Nc1ccc(C(=O)c2sc(Nc3ccc(N4CCN(C)CC4)cc3OC)nc2N)cc1 | 86% |
| COc1cc(N2CCC(C(N)=O)CC2)ccc1Nc1nc(N)c(Cl)c(Nc2ccccc2S(=O)(=O)C(C)C)n1 | 100% |
| CC1=C(C(=O)Nc2cc3cn[nH]c3cc2F)C(c2ccc(C(F)(F)F)cc2)CC(=O)N1 (stereo not given) | 94% |
| COc1cc2ncnc(Nc3cccc(Cl)c3)c2cc1OC | 84% |

----------
- test-system: DMPK (human)
- assay-summary: KINOMEscan competition binding
- condition-summary: compound 10.0 µM

| smiles-string | test-system | kinase still bound, per cent of control |
| --- | --- | --- |
| COc1ccc(N(C(=O)Oc2cc(C(=O)Nc3cccc(C(F)(F)F)c3)ccc2C)c2ccnc(Nc3ccc(N4CCN(C)CC4)cc3)n2)c(OC)c1 | DMPK (human) | 100% |
| COc1cc2c(Nc3ccc(NC(=O)c4ccccc4)cc3)ncnc2cc1OCCCN1CCOCC1 | DMPK (human) | 100% |
| CCN1CCN(Cc2ccc(NC(=O)c3ccc(C)c(/C=C/c4cnc5[nH]ccc5c4OC)c3)cc2C(F)(F)F)CC1 | DMPK (human) | 57% |

----------
Overview of reported kinase still bound, per cent of control across a group of molecules:
- test-system: PAK2 (human)
- assay-summary: KINOMEscan competition binding
- condition-summary: compound 10.0 µM

| smiles-string | kinase still bound, per cent of control |
| --- | --- |
| CCOc1cc(N2CCC(O)CC2)ccc1Nc1ncc2c(n1)N(C)c1ccccc1C(=O)N2C | 100% |
| O=c1[nH]c2ccccc2n1C1CCN(Cc2ccc(-c3nc4cc5[nH]cnc5cc4nc3-c3ccccc3)cc2)CC1 | 74% |
| COc1ccc(N(C(=O)Oc2cc(C(=O)Nc3cccc(C(F)(F)F)c3)ccc2C)c2ccnc(Nc3ccc(N4CCN(C)CC4)cc3)n2)c(OC)c1 | 100% |
| Cc1cn(-c2cc(C(=O)Nc3ccc(C)c(NC(=O)c4ccno4)c3)cc(C(F)(F)F)c2)cn1 | 100% |
| N#Cc1cc(-c2ccnc(Nc3ccc(-n4cnc(-c5cccnc5)n4)cc3)n2)cc(N2CCOCC2)c1 | 72% |
| CC(=O)c1c(C)c2cnc(Nc3ccc(N4CCNCC4)cn3)nc2n(C2CCCC2)c1=O | 93% |
| C=CC(=O)Nc1ccc(C(=O)c2sc(Nc3ccc(N4CCN(C)CC4)cc3OC)nc2N)cc1 | 68% |

----------
- test-system: MARK4 (human) (UniProt Q96L34)
- Sequence (Q96L34 whole entry, looked up): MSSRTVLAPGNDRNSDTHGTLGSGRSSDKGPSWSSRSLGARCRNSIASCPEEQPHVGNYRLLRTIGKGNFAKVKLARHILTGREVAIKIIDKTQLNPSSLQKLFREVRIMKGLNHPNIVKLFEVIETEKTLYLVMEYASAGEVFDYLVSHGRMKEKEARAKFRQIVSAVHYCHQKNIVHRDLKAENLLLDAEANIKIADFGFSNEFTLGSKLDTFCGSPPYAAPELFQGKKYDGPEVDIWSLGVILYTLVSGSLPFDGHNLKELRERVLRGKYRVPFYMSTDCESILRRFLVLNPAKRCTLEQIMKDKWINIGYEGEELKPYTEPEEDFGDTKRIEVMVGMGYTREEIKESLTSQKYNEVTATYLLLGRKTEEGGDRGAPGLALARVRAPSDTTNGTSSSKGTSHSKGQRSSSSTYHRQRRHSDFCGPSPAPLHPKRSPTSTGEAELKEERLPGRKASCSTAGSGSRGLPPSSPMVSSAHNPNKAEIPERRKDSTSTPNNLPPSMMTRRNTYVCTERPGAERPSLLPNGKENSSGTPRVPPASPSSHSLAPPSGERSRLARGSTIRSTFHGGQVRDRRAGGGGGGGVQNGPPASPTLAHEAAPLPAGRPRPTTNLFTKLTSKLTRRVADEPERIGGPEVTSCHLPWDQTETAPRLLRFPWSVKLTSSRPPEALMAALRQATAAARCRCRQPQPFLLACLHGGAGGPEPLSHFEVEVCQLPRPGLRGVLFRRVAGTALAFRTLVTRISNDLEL
- assay-summary: KINOMEscan competition binding
- condition-summary: compound 10.0 µM
assay-readout: kinase still bound, per cent of control (%)

| smiles-string | test-system | reported-result |
| --- | --- | --- |
| CCc1nc(-c2cccc(C)c2)c(-c2ccnc(NC(=O)c3ccccc3)c2)s1 | MARK4 (human) (UniProt Q96L34) | 100 |
| CCCS(=O)(=O)Nc1ccc(F)c(C(=O)c2c[nH]c3ncc(Cl)cc23)c1F | MARK4 (human) (UniProt Q96L34) | 72 |
| C=CC(=O)Nc1ccc(C(=O)c2sc(Nc3ccc(N4CCN(C)CC4)cc3OC)nc2N)cc1 | MARK4 (human) (UniProt Q96L34) | 85 |
| N#C/C(=C1/Nc2ccccc2S1)c1ccnc(NCCc2cccnc2)n1 | MARK4 (human) (UniProt Q96L34) | 100 |

----------
This section presents compounds with their documented kinase still bound, per cent of control values.
- System: MET (human), P08581 [M1250T]
- assay-summary: KINOMEscan competition binding
- condition-summary: compound 10.0 µM

| smiles-string | result-unit | kinase still bound, per cent of control |
| --- | --- | --- |
| C[C@@H](Oc1cc(-n2cnc3ccc(CN4CCN(C)CC4)cc32)sc1C(N)=O)c1ccccc1C(F)(F)F | % | 93 |
| CCN1CCN(Cc2ccc(NC(=O)c3ccc(C)c(/C=C/c4cnc5[nH]ccc5c4OC)c3)cc2C(F)(F)F)CC1 | % | 26 |
| N#Cc1c(NC(=O)c2cccc3ccccc23)sc2c1CCCC2 | % | 100 |
| N#Cc1cc(-c2ccnc(Nc3ccc(-n4cnc(-c5cccnc5)n4)cc3)n2)cc(N2CCOCC2)c1 | % | 23 |
| COc1cc(N2CCN(C)CC2)ccc1Nc1nc(N)c(C(=O)c2c(Cl)cccc2Cl)s1 | % | 100 |

Where do the numbers come from? From the kinase profiling compilation of Christmann-Franck et al. (2016).
